# ASSAYED_SYSTEM: Tyrosine-protein kinase Lyn (Homo sapiens, UniProt P07948)
# Sequence (P07948 whole entry): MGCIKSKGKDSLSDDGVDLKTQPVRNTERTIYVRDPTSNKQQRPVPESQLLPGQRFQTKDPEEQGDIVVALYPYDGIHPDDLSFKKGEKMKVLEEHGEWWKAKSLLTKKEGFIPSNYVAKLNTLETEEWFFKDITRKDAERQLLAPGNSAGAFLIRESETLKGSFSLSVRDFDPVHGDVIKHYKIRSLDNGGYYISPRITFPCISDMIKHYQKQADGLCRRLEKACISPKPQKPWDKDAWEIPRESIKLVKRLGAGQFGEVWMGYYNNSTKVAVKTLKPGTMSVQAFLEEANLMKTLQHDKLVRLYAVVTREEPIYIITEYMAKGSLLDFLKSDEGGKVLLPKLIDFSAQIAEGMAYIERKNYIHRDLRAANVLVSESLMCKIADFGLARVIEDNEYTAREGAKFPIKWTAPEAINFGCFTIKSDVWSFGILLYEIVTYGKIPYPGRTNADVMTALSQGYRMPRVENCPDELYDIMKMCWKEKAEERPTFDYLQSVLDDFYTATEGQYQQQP
# ASSAY_PROCEDURE: Inhibition of LYN (unknown origin) after 60 mins
MEASURE_NAME: IC50 (µM)
Give bare numbers, in µM.

Ask: Endpoint output: IC50 of Cc1cc(Nc2ncc(Cl)c(Nc3ccccc3S(=O)(=O)C(C)C)n2)c(OC(C)C)cc1C1CCNCC1 [CERITINIB] . Value?
Result: 0.84

* * *

# ASSAYED_SYSTEM: Voltage-gated inwardly rectifying potassium channel KCNH2 (Homo sapiens, UniProt Q12809)
# Sequence (Q12809 whole entry): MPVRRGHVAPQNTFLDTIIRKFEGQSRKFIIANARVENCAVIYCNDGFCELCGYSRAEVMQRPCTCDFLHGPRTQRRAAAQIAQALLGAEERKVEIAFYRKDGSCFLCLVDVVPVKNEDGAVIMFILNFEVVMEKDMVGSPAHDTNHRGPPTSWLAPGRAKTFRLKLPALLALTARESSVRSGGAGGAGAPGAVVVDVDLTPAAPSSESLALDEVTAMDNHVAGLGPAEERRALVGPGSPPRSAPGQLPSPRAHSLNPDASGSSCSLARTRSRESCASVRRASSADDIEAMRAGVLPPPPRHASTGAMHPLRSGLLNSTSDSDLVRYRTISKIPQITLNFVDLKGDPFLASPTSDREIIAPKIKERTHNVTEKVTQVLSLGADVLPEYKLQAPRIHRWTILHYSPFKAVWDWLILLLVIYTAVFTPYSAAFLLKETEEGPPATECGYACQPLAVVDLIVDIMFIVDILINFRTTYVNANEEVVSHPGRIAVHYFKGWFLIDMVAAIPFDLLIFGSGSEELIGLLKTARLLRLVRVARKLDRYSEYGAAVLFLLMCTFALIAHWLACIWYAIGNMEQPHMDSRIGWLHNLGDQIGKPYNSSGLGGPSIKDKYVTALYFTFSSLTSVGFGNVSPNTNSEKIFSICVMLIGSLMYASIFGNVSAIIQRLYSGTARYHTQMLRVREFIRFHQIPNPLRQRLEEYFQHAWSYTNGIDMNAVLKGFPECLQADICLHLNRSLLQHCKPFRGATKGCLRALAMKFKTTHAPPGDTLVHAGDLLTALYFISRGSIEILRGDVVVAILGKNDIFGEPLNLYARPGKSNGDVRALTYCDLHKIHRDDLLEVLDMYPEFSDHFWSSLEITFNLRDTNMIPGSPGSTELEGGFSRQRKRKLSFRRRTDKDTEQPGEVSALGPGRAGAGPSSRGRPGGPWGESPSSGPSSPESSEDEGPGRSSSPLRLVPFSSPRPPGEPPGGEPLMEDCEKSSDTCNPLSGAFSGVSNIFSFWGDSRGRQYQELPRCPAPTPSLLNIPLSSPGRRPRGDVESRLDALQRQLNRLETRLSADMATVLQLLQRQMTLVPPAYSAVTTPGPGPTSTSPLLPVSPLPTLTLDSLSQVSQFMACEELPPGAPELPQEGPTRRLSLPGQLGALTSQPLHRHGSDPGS
# ASSAY_PROCEDURE: Inhibition of human ERG by patch-clamp technique
MEASURE_NAME: IC50 (µM)
Answers are plain numbers, in µM.

Ask: Return IC50 measured with Voltage-gated inwardly rectifying potassium channel KCNH2 (Homo sapiens, UniProt Q12809) given this compound: Cc1cc(Nc2ncc(C)c(Nc3ccccc3S(=O)(=O)C(C)C)n2)c(OC(C)C)cc1C1CCN(C)CC1
Result: 20
